# assay: Pharmacokinetics of hydrochloride crystal form A in Beagle dogs
# Assay type: in vivo
# settings: dog, plasma, po; single i.g. 6 mg/kg, male Beagle dogs, mean; read-out: MRT0-inf
Counter-ions that a name gives are not always drawn.
metric_name: MRT inf (h)
Enter your answer as a number in h; do not include the unit.

Challenge: GET /values?readout=MRT inf&item= CC[S@@](=N)(=O)C[C@H]1CC[C@H](N(C)c2ncnc3[nH]ccc23)CC1 [Hydrochloride crystal form A]
Response given: 5.11

* * *

# assay: Pharmacokinetics of free crystal form A in Beagle dogs
# Type: in vivo
# settings: both sexes, Beagle, dog, plasma, po; i.g. 6 mg/kg, first administration, male/female mean
metric_name: Cmax
A complete answer gives the number followed by the unit.

Challenge: Which Cmax value belongs to CC[S@@](=N)(=O)C[C@H]1CC[C@H](N(C)c2ncnc3[nH]ccc23)CC1 [Free crystal form A] ?
Response given: 4710 ng/mL

* * *

# assay: Acute toxicity test, single oral intragastric administration
# Format: in vivo
# settings: Sprague-Dawley, rat, in vivo, oral; male rats; read-out: LD50 95% confidence interval
metric_name: LD50 at 7 d

Challenge: Requested read-out: LD50 at 7 d. Entry: CC[S@@](=N)(=O)C[C@H]1CC[C@H](N(C)c2ncnc3[nH]ccc23)CC1 [Free crystal form A]
Response given: 429 to 818 mg/kg

* * *

# assay: Pharmacokinetics of free crystal form A in Beagle dogs
# Format: in vivo
# settings: both sexes, Beagle, dog, plasma, po, 6 mg/kg, i.g. 6 mg/kg, first administration, male/female mean; read-out: MRT0-t
metric_name: MRT last
Put your answer as a value accompanied by its unit after it.

Challenge: Param item = CC[S@@](=N)(=O)C[C@H]1CC[C@H](N(C)c2ncnc3[nH]ccc23)CC1 [Free crystal form A] ; retrieve measured MRT last.
Response given: 5.49 h

* * *

# assay: Assessment of dynamic solubility
# Type: physicochemical
# settings: simulated gastric fluid (SGF), 37 °C, simulated gastric fluid, thermodynamic from solid, SGF, 2 h, read-out: S: solubility, calculated as free form
metric_name: solubility at 2 h
Express your answer as a number followed by its unit.

Challenge: Which measured solubility at 2 h value corresponds to CC[S@@](=N)(=O)C[C@H]1CC[C@H](N(C)c2ncnc3[nH]ccc23)CC1 [Free crystal form A] ?
Response given: 8900 µg/mL

* * *

# assay: Pharmacokinetics of free crystal form A in Beagle dogs
# Format: in vivo
# settings: both sexes, Beagle, dog, plasma, po; i.g. 6 mg/kg, first administration, from average AUC0-t after dose correction; read-out: F (oral bioavailability)
metric_name: bioavailability

Challenge: Give its bioavailability value. Item: CC[S@@](=N)(=O)C[C@H]1CC[C@H](N(C)c2ncnc3[nH]ccc23)CC1 [Free crystal form A]
Response given: 100%

* * *

# assay: Assessment of dynamic solubility
# Type: physicochemical
# settings: simulated gastric fluid (SGF), 37 °C, simulated gastric fluid, thermodynamic from solid, SGF, 1 h, read-out: S: solubility, calculated as free form
metric_name: solubility at 1 h (µg/mL)
Write the number in µg/mL without appending the unit.

Challenge: Entry CC[S@@](=N)(=O)C[C@H]1CC[C@H](N(C)c2ncnc3[nH]ccc23)CC1 [Free crystal form A] has what solubility at 1 h?
Response given: 9000

* * *

# assay: Pharmacokinetics of free crystal form A in Beagle dogs
# Type: in vivo
# settings: both sexes, beagle, dog, plasma, iv; i.v. 2 mg/kg, male and female, mean
metric_name: clearance (mL/min/kg)
A number alone suffices; assume mL/min/kg.

Challenge: For the compound shown here, CC[S@@](=N)(=O)C[C@H]1CC[C@H](N(C)c2ncnc3[nH]ccc23)CC1 [Free crystal form A] , give the reported clearance.
Response given: 3.4

* * *

# assay: Assessment of dynamic solubility
# Type: physicochemical
# settings: simulated gastric fluid (SGF), 37 °C, simulated gastric fluid, thermodynamic from solid, SGF, 4 h, read-out: S: solubility, calculated as free form
metric_name: solubility at 4 h (mg/mL)
A number alone suffices; assume mg/mL.

Challenge: Any idea what its solubility at 4 h is? The compound is CC[S@@](=N)(=O)C[C@H]1CC[C@H](N(C)c2ncnc3[nH]ccc23)CC1 [Free crystal form A]
Response given: 8.8

* * *

# assay: Pharmacokinetics of hydrochloride crystal form A in Beagle dogs
# Type: in vivo
# settings: dog, plasma, po; single i.g. 6 mg/kg, male Beagle dogs, mean
Where a name gives a salt, the structure may show the parent alone.
metric_name: Cmax (ng/mL)
Numeric answer only, unit ng/mL assumed.

Challenge: Value lookup for Cmax; key = CC[S@@](=N)(=O)C[C@H]1CC[C@H](N(C)c2ncnc3[nH]ccc23)CC1 [Hydrochloride crystal form A]
Response given: 5290

* * *

# assay: Pharmacokinetics of hydrochloride crystal form A in Beagle dogs
# Format: in vivo
# settings: dog, plasma, po; single i.g. 6 mg/kg, male Beagle dogs, mean
Where a name gives a salt, the structure may show the parent alone.
metric_name: AUC(0-inf) (ng·h/mL)
Give just the number in ng·h/mL; leave the unit off.

Challenge: Tell me the measured AUC(0-inf) of CC[S@@](=N)(=O)C[C@H]1CC[C@H](N(C)c2ncnc3[nH]ccc23)CC1 [Hydrochloride crystal form A] , please.
Response given: 32100

* * *

# assay: Pharmacokinetics of free crystal form A in Beagle dogs
# Type: in vivo
# settings: both sexes, Beagle, dog, plasma, po, 2 mg/kg, i.g. 2 mg/kg single, male/female mean
metric_name: AUC(0-t) (ng·h/mL)
Numbers only here, please. The scale is ng·h/mL.

Challenge: Endpoint output: AUC(0-t) of CC[S@@](=N)(=O)C[C@H]1CC[C@H](N(C)c2ncnc3[nH]ccc23)CC1 [Free crystal form A] . Value?
Response given: 8750

* * *

# assay: Pharmacokinetics of free crystal form A in Beagle dogs
# Format: in vivo
# settings: both sexes, Beagle, dog, plasma, po; i.g. 6 mg/kg, first administration, male/female mean
metric_name: Tmax (min)
Numbers only here, please. The scale is min.

Challenge: Given the entry CC[S@@](=N)(=O)C[C@H]1CC[C@H](N(C)c2ncnc3[nH]ccc23)CC1 [Free crystal form A] , report its measured Tmax.
Response given: 57.5

* * *

# assay: Pharmacokinetics of hydrochloride crystal form A in Beagle dogs
# Format: in vivo
# settings: dog, plasma, po; single i.g. 6 mg/kg, male Beagle dogs, mean; read-out: MRT0-t
# Description: In this experiment, three male Beagle dogs were randomly selected for administration. All the animals were fasted for at least 12 h before administration and were fed again 4 h after administration. […] The blood samples from the animals were collected through the jugular vein, with a blood sample volume of 0.5 mL/time. […] The drug concentration in the plasma of each Beagle dog was detected by an LC-MS/MS method.
Counter-ions that a name gives are not always drawn.
metric_name: MRT last (h)
Field format: number, assumed h, no unit text.

Challenge: Given the compound CC[S@@](=N)(=O)C[C@H]1CC[C@H](N(C)c2ncnc3[nH]ccc23)CC1 [Hydrochloride crystal form A] , what is its reported MRT last?
Response given: 4.84

* * *

# assay: Pharmacokinetics of free crystal form A in Beagle dogs
# Format: in vivo
# settings: both sexes, Beagle, dog, plasma, po; i.g. 20 mg/kg single, male/female mean
metric_name: Cmax (ng/mL)
Report the figure in ng/mL without appending any unit label.

Challenge: Tell me the measured Cmax of CC[S@@](=N)(=O)C[C@H]1CC[C@H](N(C)c2ncnc3[nH]ccc23)CC1 [Free crystal form A] , please.
Response given: 13300

* * *

# assay: Assessment of 24-h solubility in pH buffers
# Format: physicochemical
# settings: buffer pH 7.4, pH 7.4, aqueous buffer, thermodynamic from solid, Buffer (pH = 7.4), room temperature, read-out: S: solubility, calculated as free form
metric_name: solubility at 24 h

Challenge: I have this compound here, CC[S@@](=N)(=O)C[C@H]1CC[C@H](N(C)c2ncnc3[nH]ccc23)CC1 [Free crystal form A] , and I need its recorded solubility at 24 h.
Response given: 1700 µg/mL

* * *

# assay: Assessment of dynamic solubility
# Type: physicochemical
# settings: simulated gastric fluid (SGF), 37 °C, simulated gastric fluid, thermodynamic from solid, SGF, 24 h, read-out: S: solubility, calculated as free form
metric_name: solubility at 24 h (mg/mL)
Numbers only here, please. The scale is mg/mL.

Challenge: Recorded solubility at 24 h of CC[S@@](=N)(=O)C[C@H]1CC[C@H](N(C)c2ncnc3[nH]ccc23)CC1 [Free crystal form A] , please.
Response given: 9.1

* * *

# assay: Pharmacokinetics of free crystal form A in Beagle dogs
# Format: in vivo
# settings: both sexes, Beagle, dog, plasma, po; i.g. 2 mg/kg single, from average AUC0-t after dose correction; read-out: F (oral bioavailability)
metric_name: bioavailability (%)
Respond numerically; units are % and should not be typed.

Challenge: Using the record for CC[S@@](=N)(=O)C[C@H]1CC[C@H](N(C)c2ncnc3[nH]ccc23)CC1 [Free crystal form A] , report its bioavailability.
Response given: 88
